systemName: Mcl-1/Bim interaction, recombinant human Mcl-1 (171-327) (Homo sapiens)
Construct: made in house
Sequence (Q07820 171-327): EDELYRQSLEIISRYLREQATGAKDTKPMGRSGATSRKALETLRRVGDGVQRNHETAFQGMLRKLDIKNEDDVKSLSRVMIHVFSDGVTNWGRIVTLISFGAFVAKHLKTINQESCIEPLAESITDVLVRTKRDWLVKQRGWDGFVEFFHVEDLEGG
testDescription: Cell free Mcl-1: Bim Affinity Assay (Mcl-1 HTRF)
Type: binding
statedConditions: TR-FRET, 0.1 nM Mcl-1 (171-327), 0.05 nM biotin-Bim (51-76)
measuredMetric: IC50 (nM)
Return type: number; implicit unit nM.

Worked examples follow.
>>> resultnumber("CC(C)(C)S(=O)(=O)CC[C@@H]1CC/C=C/[C@H](O)[C@@H]2CC[C@H]2CN2C[C@@]3(CCCc4cc(Cl)ccc43)COc3ccc(cc32)C(=O)NS1(=O)=O.CC(C)(C)S(=O)(=O)CC[C@H]1CC/C=C/[C@H](O)[C@@H]2CC[C@H]2CN2C[C@@]3(CCCc4cc(Cl)ccc43)COc3ccc(cc32)C(=O)NS1(=O)=O (mixture of isomers)")
0.259
>>> resultnumber("COCC[C@@H]1[C@@H](C)C/C=C/[C@H](OCCN2CCOCC2)[C@@H]2CC[C@H]2CN2C[C@@]3(CCCc4cc(Cl)ccc43)COc3ccc(cc32)C(=O)NS1(=O)=O (single isomer, unassigned)")
0.233
>>> resultnumber("CC[C@H]1[C@H](OC)C/C=C/[C@H](O)[C@@H]2CC[C@H]2CN2C[C@@]3(CCCc4cc(Cl)ccc43)COc3ccc(cc32)C(=O)NS1(=O)=O (single isomer, unassigned)")
3.37
>>> resultnumber("CC[C@@H]1CC/C=C/[C@H](OCC(=O)Nc2ccncc2)[C@@H]2CC[C@H]2CN2C[C@@]3(CCCc4cc(Cl)ccc43)COc3ccc(cc32)C(=O)NS1(=O)=O")
3.14
>>> resultnumber("O=C1NS(=O)(=O)[C@H]2C[C@@H](O)C[C@@H]2C/C=C/[C@H](O)[C@@H]2CC[C@H]2CN2C[C@@]3(CCCc4cc(Cl)ccc43)COc3ccc1cc32 (single isomer, unassigned)")
1.51

Requested read-out: IC50. Entry: CCOC[C@@H]1[C@@H](C)C/C=C/[C@H](OC)[C@@H]2CC[C@H]2CN2C[C@@]3(CCCc4cc(Cl)ccc43)COc3ccc(cc32)C(=O)NS1(=O)=O (single isomer, unassigned)
0.973

Consider the compound shown here: O=C1NS(=O)(=O)[C@@H]2CCC[C@H](/C=C/[C@H](O)[C@@H]3CC[C@H]3CN3C[C@@]4(CCCc5cc(Cl)ccc54)COc4ccc1cc43)C2 (single isomer, unassigned) What is its recorded IC50?
1.34

So what does the record say about IC50 for C[C@@H]1CC/C=C/[C@H](O[C@@H]2CCOC2=O)[C@@H]2CC[C@H]2CN2C[C@@]3(CCCc4cc(Cl)ccc43)COc3ccc(cc32)C(=O)NS1(=O)=O (single isomer, unassigned) ?
0.188

Item under review: CO[C@H]1/C=C/[C@@H](CO)C[C@H](C)S(=O)(=O)NC(=O)c2ccc3c(c2)N(C[C@@H]2CC[C@H]21)C[C@@]1(CCCc2cc(Cl)ccc21)CO3 (single isomer, unassigned) . Reported IC50?
0.341
